tested on: broad panel of different clinical isolates; assay: microbe, parasite or virus in culture; assay type: cell-based; settings: Enterococcus faecalis, E. faecalis HAV#607; Clinical
Readout Name: MIC (µg/mL)
Answers are plain numbers, in µg/mL.

Query: # query: MIC of entry `C[C@H]1COc2c(N3CCN(C)CC3)c(F)cc3c(=O)c(C(=O)O)cn1c23`
Reply: 64

Query: # query: MIC of entry `CC(=O)NC[C@H]1CN(c2ccc(N3CCOCC3)c(F)c2)C(=O)O1`
Reply: 16

Query: # query: MIC of entry CSC1O[C@H]([C@H](NC(=O)[C@H]2NC[C@@H]3C[C@H](CC(C)C)CCO[C@H]32)[C@H](C)Cl)C(O)[C@@H](O)[C@H]1O (stereo partly shown) [FSA-513018b]
Reply: 2

Okay, next one:
Query: # query: MIC of entry `C[C@H]1c2cccc(O)c2C(=O)C2=C(O)[C@]3(O)C(=O)C(C(N)=O)=C(O)[C@@H](N(C)C)[C@@H]3[C@@H](O)[C@@H]21`
Reply: 1

====

Test system: broad panel of different clinical isolates
Test: microbe, parasite or virus in culture
Assay type: cell-based
Settings: Escherichia coli, E. coli HAV#514; Clinical
Experimental: Minimum inhibitory concentrations (MICs) were determined by broth microdilution method or agar dilution method following the Clinical and Laboratory Standards Institute guidelines. Standard bacterial strains were obtained from American Type Culture Collection (ATCC). Other bacterial strains were obtained from hospitals and commercial sources, so noted in Table 11. […] Specialized procedures were employed for streptococcal and anaerobic strains. […]
Would you kindly list MIC for each of these compounds?
Give bare numbers, in µg/mL.

Query: Please state recorded MIC (tested on broad panel of different clinical isolates) of `CO/N=C(\C(=O)N[C@@H]1C(=O)N2C(C(=O)O)=C(CSc3nc(=O)c(=O)[nH]n3C)CS[C@H]12)c1csc(N)n1`
Reply: 0.125

Query: Please state recorded MIC (tested on broad panel of different clinical isolates) of CSC1O[C@H]([C@H](NC(=O)[C@H]2NC[C@@H]3C[C@H](CC(C)C)CCO[C@H]32)[C@H](C)Cl)C(O)[C@@H](O)[C@H]1O (some centres unmarked) [FSA-513018b]
Reply: 8

Your task in this section: give MIC for each listed record.
1. C[C@H]1c2cccc(O)c2C(=O)C2=C(O)[C@]3(O)C(=O)C(C(N)=O)=C(O)[C@@H](N(C)C)[C@@H]3[C@@H](O)[C@@H]21
2. CN[C@H](CC(C)C)C(=O)N[C@H]1C(=O)N[C@@H](CC(N)=O)C(=O)N[C@H]2C(=O)N[C@H]3C(=O)N[C@H](C(=O)N[C@H](C(=O)O)c4cc(O)cc(O)c4-c4cc3ccc4O)[C@H](O)c3ccc(c(Cl)c3)Oc3cc2cc(c3O[C@@H]2O[C@H](CO)[C@@H](O)[C@H](O)[C@H]2O[C@H]2C[C@](C)(N)[C@H](O)[C@H](C)O2)Oc2ccc(cc2Cl)[C@H]1O
3. CC[C@H]1OC(=O)[C@H](C)[C@@H](O[C@H]2C[C@@](C)(OC)[C@@H](O)[C@H](C)O2)[C@H](C)[C@@H](O[C@@H]2O[C@H](C)C[C@H](N(C)C)[C@H]2O)[C@](C)(O)C[C@@H](C)CN(C)[C@H](C)[C@@H](O)[C@]1(C)O

Reply:
[2, 128, 8]

====

test system: broad panel of different clinical isolates; assay: microbe, parasite or virus in culture; type: cell-based; details: Enterococcus faecium, VRE, E. faecium HAV#326; Clinical
Readout Name: MIC
# output: numeric value plus its unit

Query: # query: MIC of entry `CCC[C@@H]1C[C@@H](C(=O)N[C@@H]([C@H]2O[C@H](SC)[C@H](O)[C@@H](O)[C@H]2O)[C@@H](C)O)N(C)C1`
Reply: 16 µg/mL

Query: # query: MIC of entry `CN(C)c1ccc(O)c2c1C[C@H]1C[C@H]3[C@H](N(C)C)C(O)=C(C(N)=O)C(=O)[C@@]3(O)C(O)=C1C2=O`
Reply: 0.125 µg/mL

Query: # query: MIC of entry CSC1O[C@H]([C@H](NC(=O)[C@H]2NC[C@@H]3C[C@H](CC(C)C)CCO[C@H]32)[C@H](C)Cl)C(O)[C@@H](O)[C@H]1O (stereo partly shown) [FSA-513018b]
Reply: 0.25 µg/mL

Okay, next one:
Query: # query: MIC of entry CCC[C@@H]1C[C@@H](C(=O)N[C@@H]([C@H]2O[C@H](SC)[C@H](O)[C@@H](O)[C@H]2O)[C@H](C)Cl)N(C)C1 [Clindamycin, clindamycin, reference compound]
Reply: 8 µg/mL

====

Would you kindly list MIC for each of these compounds?
System: broad panel of different clinical isolates
Assay: microbe, parasite or virus in culture
Type: cell-based
Conditions: Enterococcus faecalis, S. faecalis 5060, Line R & Vanco R
Procedure: Minimum inhibitory concentrations (MICs) were determined by broth microdilution method or agar dilution method following the Clinical and Laboratory Standards Institute guidelines. Standard bacterial strains were obtained from American Type Culture Collection (ATCC). Other bacterial strains were obtained from hospitals and commercial sources, so noted in Table 11. […] Specialized procedures were employed for streptococcal and anaerobic strains. […]
One number for each entry, in µg/mL.

Some solved cases for reference:
Query: # query: MIC of entry CCC[C@@H]1C[C@@H](C(=O)N[C@@H]([C@H]2O[C@H](SC)[C@H](O)[C@@H](O)[C@H]2O)[C@H](C)Cl)N(C)C1 [Clindamycin, clindamycin, reference compound]
Reply: 128

Query: # query: MIC of entry `CC(=O)NC[C@H]1CN(c2ccc(N3CCOCC3)c(F)c2)C(=O)O1`
Reply: 8

Query: # query: MIC of entry `C[C@H]1COc2c(N3CCN(C)CC3)c(F)cc3c(=O)c(C(=O)O)cn1c23`
Reply: 64

Okay, next one:
Query: # query: MIC of entry CSC1O[C@H]([C@H](NC(=O)[C@H]2NC[C@@H]3C[C@H](CC(C)C)CCO[C@H]32)[C@H](C)Cl)C(O)[C@@H](O)[C@H]1O (stereo partly shown) [FSA-513018b]
Reply: 0.125

====

Would you kindly list MIC for each of these compounds?
System: S. pneumoniae ATCC 6303
Test: MIC (broth microdilution or agar dilution, CLSI)
Assay type: cell-based
Conditions: Streptococcus pneumoniae, ATCC6303; S. pneumoniae HAV#351, ATCC 6303; read-out: MIC
Protocol: Minimum inhibitory concentrations (MICs) were determined by broth microdilution method or agar dilution method following the Clinical and Laboratory Standards Institute guidelines. Standard bacterial strains were obtained from American Type Culture Collection (ATCC). Other bacterial strains were obtained from hospitals and commercial sources, so noted in Table 11. […] Specialized procedures were employed for streptococcal and anaerobic strains. […]
# output: numeric value plus its unit

Some solved cases for reference:
Query: # query: MIC of entry `CC(=O)NC[C@H]1CN(c2ccc(N3CCOCC3)c(F)c2)C(=O)O1`
Reply: 1 µg/mL

Query: # query: MIC of entry `CC[C@H]1OC(=O)[C@H](C)[C@@H](O[C@H]2C[C@@](C)(OC)[C@@H](O)[C@H](C)O2)[C@H](C)[C@@H](O[C@@H]2O[C@H](C)C[C@H](N(C)C)[C@H]2O)[C@](C)(O)C[C@@H](C)C(=O)[C@H](C)[C@@H](O)[C@]1(C)O`
Reply: 0.5 µg/mL

Query: # query: MIC of entry `C[C@H]1c2cccc(O)c2C(=O)C2=C(O)[C@]3(O)C(=O)C(C(N)=O)=C(O)[C@@H](N(C)C)[C@@H]3[C@@H](O)[C@@H]21`
Reply: 0.125 µg/mL

Your task in this section: give MIC for each listed record.
1. CC[C@H]1OC(=O)[C@H](C)[C@@H](O[C@H]2C[C@@](C)(OC)[C@@H](O)[C@H](C)O2)[C@H](C)[C@@H](O[C@@H]2O[C@H](C)C[C@H](N(C)C)[C@H]2O)[C@](C)(O)C[C@@H](C)CN(C)[C@H](C)[C@@H](O)[C@]1(C)O
2. C[C@H]1COc2c(N3CCN(C)CC3)c(F)cc3c(=O)c(C(=O)O)cn1c23

Reply:
1: 2 µg/mL; 2: 0.5 µg/mL

Your task in this section: give MIC for each listed record.
1. Cc1onc(-c2ccccc2)c1C(=O)N[C@@H]1C(=O)N2[C@@H]1SC(C)(C)[C@@H]2C(=O)O
2. CO/N=C(\C(=O)N[C@@H]1C(=O)N2C(C(=O)O)=C(CSc3nc(=O)c(=O)[nH]n3C)CS[C@H]12)c1csc(N)n1

Reply:
0.5 µg/mL
0.06 µg/mL

====

tested on: P. aeruginosa ΔAmex OprM; assay: MIC (broth microdilution or agar dilution, CLSI); format: cell-based; conditions: Pseudomonas aeruginosa
Would you kindly list MIC for each of these compounds?
# output: numeric value plus its unit

Some solved cases for reference:
Query: # query: MIC of entry CCC[C@@H]1CCO[C@@H]2[C@H](CN[C@@H]2C(=O)N[C@H]([C@H](C)Cl)[C@H]2OC(SC)[C@H](O)[C@H](O)C2O)C1 (stereo partly drawn) [FSA-10-09-051]
Reply: 2 µg/mL

Query: # query: MIC of entry C=CC[C@@H]1CCO[C@@H]2[C@H](CN[C@@H]2C(=O)N[C@H]([C@H](C)Cl)[C@H]2OC(SC)[C@H](O)[C@H](O)C2O)C1 (stereo partly drawn) [FSA-10-09-045]
Reply: 2 µg/mL

Okay, next one:
Query: # query: MIC of entry CCC[C@@H]1C[C@@H](C(=O)N[C@@H]([C@H]2O[C@H](SC)[C@H](O)[C@@H](O)[C@H]2O)[C@H](C)Cl)N(C)C1 [Clindamycin, clindamycin, reference compound]
Reply: 32 µg/mL
